Test system: THRa:RXRa (NR concentration 90 nM, RXRa partner concentration 90 nM)
assay-comment: PBM binding z-score (relative to random genomic background probes); higher = stronger binding; sequences stand for … in GC…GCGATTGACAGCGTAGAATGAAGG
# PBM binding z-score per record follows
result-type: PBM binding z-score

1. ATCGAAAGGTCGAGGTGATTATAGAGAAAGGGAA
2.54
2. ACAGACAGGTGAGTGAAGGTAACTCGGCTGGACG
1.38
3. TCTCGGAGGACACGGAAGGTCAGAGCTCGACATC
3.45
4. GCTTACGGGTCTAAGGTTATAGCATGAATAGAAT
2.16
5. TCTTGGAGATCAAGCAGGTTAAGAAAGCCTGAGT
0.589
6. AGAATGAGGTTATATGTAGATCAGGGAAGAAAGT
2.44
7. TCTTGTAGATCGGCAGGTTAAGAAAGCTGGCCAA
0.308
8. TCTTGTAGACCAATAGAGGTTAAGAAAGTGCGCT
1.66
9. CGTCCAAGGTCATAGGAGGTCAGCGAAGACAGAT
5.52
10. ACTCGTAGGACAAAGGTCAGAGCTACGCCAGTGA
2.92
11. TCTTGTAGATCAGCAGATTAAGAAAGCTGGCCAA
-0.329
12. TCTTGTAGGTCAAGCAGGTTAAGAAAGCCTGAGT
3.08

----------
Tested on: PPARg homodimer (NR concentration 180 nM)
assay-comment: PBM binding z-score (relative to random genomic background probes); higher = stronger binding; sequences stand for … in GC…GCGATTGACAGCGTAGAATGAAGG
result-type: PBM binding z-score

1. GATACAGGGTCAAGACCAGAGTACGCGTATTGAT
1.49
2. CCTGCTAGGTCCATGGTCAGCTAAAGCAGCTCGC
-0.704
3. ATACCAAGGTGATCGTGAAGTCGTTGATACTAAC
0.766
4. TCTAGTAGATCAACAGGAGGTTAAGAAAGATCGA
0.637
5. ATATGTAGGTTAGCCGGGGTCATTCAGACTAGGC
2.77
6. CCTACTGGGCCATAAGGTCATTGATATCAACGTT
2.03

----------
Test system: RXRa DBDmut IVT, anti-RXR (DBD mutation: RXRa K156A/R161A, NR concentration 90 nM)
assay-comment: PBM binding z-score (relative to random genomic background probes); higher = stronger binding; sequences stand for … in GC…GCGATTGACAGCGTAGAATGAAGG
Rule: 1.0 for PBM binding z-score not less than 2, 0.0 for anything less.

1. CGAACTAGGTGATCCAGGACAGTGAATACATTGA
0.0
2. GCTGCTAGGTCAACTGATGGTCAGCAAAAGCTCG
0.0
3. AGAATGAGGTTACCAAAGATCAGCGAAACGCTTG
0.0
4. TCTTGTAGCTCAAAGGTTAAGAAAGCCGAAGCCT
0.0
5. CAGCCTAGATCAGGGCCAGTATAGGAGGAACGTT
0.0
6. CCTTACGTGTCACTCCAGGTTATAGCATCGGAGT
0.0
7. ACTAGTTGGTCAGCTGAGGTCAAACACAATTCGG
0.0
8. TCTGCTAGGTCAGTAGGTCAGCTAACGAGCTGCC
0.0
9. TGTCAAAGTTCAAAGGCAACGTAAGTATCCACAC
1.0
10. TATACAGGGTCAAAGTCCAGAGTACGAATGTCGA
1.0
11. CCAGACAGGTGAGAAGGTAAATCAGCCTCGATTA
0.0
12. GATACAAGGTCAAGGCCAGAGTACGCGTATTGAT
1.0
13. CCTACTGGGCCAAAGGTCATTGGTTCCAATGCTC
0.0
14. TGAATGAGGTTATAAGATCAGGCAACGTTGCAAA
0.0
15. CAAACTAGGTCACGAAAGGTCAATGTCGAATGAC
1.0
16. ATAGGTAGGTTAGCTGGGGTCATTCAGACTAGGC
1.0
17. CCAGACAGGTGAAAAGGTAACTCAGCCTCGATTA
0.0
18. CCTGCTAGGTCACGGTCAGCTAATCTACAGTATG
1.0
19. ACTATTAGTTGACTTAGGGAAACCGATACGACGC
0.0
20. GCTAGTTGGTCAGTAAAAGGTCCCACACCGGTCG
0.0
21. AGAACGAGTGCAATGAGTTGATAGCACGGGTGGC
1.0
22. TCTATTAGTTGAACGGCAACCGACGAGTCCGTTT
0.0
23. AGAATGAGGTTATTAATATCAGGGAATTGCGGTC
0.0
24. CGAACTAGGTCATCTAGGACAGTGAATACATTGA
1.0
25. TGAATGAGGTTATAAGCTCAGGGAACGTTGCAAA
0.0
